- Test system: mice
- METHOD_DESCRIPTION: Neuropharmacological Assay (SmartCube)
- Format: in vivo
- RUN_CONDITIONS: mice, i.p. 15 min before test, most efficacious dose(s) of 3 doses
PROPERTY_MEASURED: SD: sedative hypnotic (SmartCube probability)

Worked cases, answers included:
| MOLECULE | RESULT |
| --- | --- |
| Cc1cccc2c1[C@H](CN)OCC2 [Example 75, (R)-(8-methylisochroman-1-yl)methanamine] | + (LOQ≤ + <5%) |
| CNC[C@H]1OC[C@H](O)c2ccc3c(c21)OCO3 (single isomer, unassigned) [Example 112] | + (LOQ≤ + <5%) |
| CNC[C@H]1OCCc2c(OC)cccc21 [Example 62] | + (LOQ≤ + <5%) |
| CNC[C@@H]1OCCc2c1cccc2C(F)(F)F [Example 79] | ++ (5%≤ ++ <25%) |
| CNC[C@H]1OCCc2cc3c(cc21)OCO3 (stereo in doubt) [Example 5] | + (LOQ≤ + <5%) |

May I ask what SD: sedative hypnotic (SmartCube probability) has been recorded for CNC[C@@H]1OC[C@H](F)c2ccccc21 [Example 22] ?
++ (5%≤ ++ <25%)

State the recorded SD: sedative hypnotic (SmartCube probability) for this entry: CNC[C@@H]1OCCc2c(F)ccc(F)c21 [Example 31]
+ (LOQ≤ + <5%)

Tell me the measured SD: sedative hypnotic (SmartCube probability) of CNC[C@H]1OCCc2cccc(C)c21 [Example 40] , please.
++ (5%≤ ++ <25%)

Taken from patent US10196403B2.
